Test: Pharmacokinetic experiments in rats (IV, oral suspension, oral solution)
Format: in vivo
Conditions: male, rat, plasma, po, 20 mg/kg, Group 5, PO-Solution 20 mg/kg, Mean N=3, read-out: Tmax
PROPERTY_LABEL: Tmax (min)
Write the number in min without appending the unit.

input: Give the reported value of Tmax for this record: O=C(NNc1nc2cc(F)ccc2n2cccc12)c1cnccn1.O=C(O)C(=O)O
output: 40.2

###

Test: Pharmacokinetic experiments in rats (IV, oral suspension, oral solution)
Format: in vivo
Conditions: male, rat, plasma, iv, 5 mg/kg, IV 5 mg/kg, Mean of 3, read-out: Tmax
PROPERTY_LABEL: Tmax (min)
Number in min, nothing else.

input: Identify Tmax associated with the compound O=C(NNc1nc2cc(F)ccc2n2cccc12)c1cnccn1.O=C(O)C(=O)O
output: 4.98

###

Assay: Pharmacokinetic experiments in rats (IV, oral suspension, oral solution)
Assay type: in vivo
Details: male, rat, plasma, iv, 5 mg/kg, IV 5 mg/kg, 2 h, individual animals
PROPERTY_LABEL: concentration at 2 h (ng/mL)
Your answer should be a plain number; it is taken to be in ng/mL.

input: Please list concentration at 2 h recorded for the compound O=C(NNc1nc2cc(F)ccc2n2cccc12)c1cnccn1.O=C(O)C(=O)O [NVX-412]
output: 167

###

Assay: Pharmacokinetic experiments in rats (IV, oral suspension, oral solution)
Assay type: in vivo
Settings: male, rat, plasma, oral, 20 mg/kg, Group 3, PO-Suspension 20 mg/kg, 8 hr, Mean, only 2 replicates available
PROPERTY_LABEL: concentration at 8 h (ng/mL)
The reply should be a number in ng/mL, with the unit left off.

input: Check the records and state concentration at 8 h for O=C(NNc1nc2cc(F)ccc2n2cccc12)c1cnccn1.O=C(O)C(=O)O
output: 9.27

###

Assay: Pharmacokinetic experiments in rats (IV, oral suspension, oral solution)
Format: in vivo
Conditions: male, rat, plasma, po, 20 mg/kg, Group 3, PO-Suspension 20 mg/kg, individual animals
PROPERTY_LABEL: AUC
Write the figure, then the unit, nothing else.

input: Look up and report measured AUC for this entry: O=C(NNc1nc2cc(F)ccc2n2cccc12)c1cnccn1.O=C(O)C(=O)O
output: 2390 ng·h/mL

###

Test: Pharmacokinetic experiments in rats (IV, oral suspension, oral solution)
Format: in vivo
Details: male, rat, plasma, po, 20 mg/kg, Group 3, PO-Suspension 20 mg/kg, individual animals, versus mean IV AUCINF, adjusted for dose, read-out: Bioavailability
PROPERTY_LABEL: bioavailability (%)
Give just the numeric value; % need not be written.

input: Give recorded bioavailability. O=C(NNc1nc2cc(F)ccc2n2cccc12)c1cnccn1.O=C(O)C(=O)O [NVX-412]
output: 45.9

###

Assay: Pharmacokinetic experiments in rats (IV, oral suspension, oral solution)
Assay type: in vivo
Conditions: male, rat, plasma, iv, 5 mg/kg, IV 5 mg/kg, individual animals, read-out: Cmax
Procedure: The oral suspension formulation was prepared by suspending the test article in 5% PEG-200/95% of a 0.5% solution of methylcellulose. The concentration of the test article was such that a dosing volume of 10 mL/kg delivered the intended dose level. […] The whole blood samples were centrifuged (˜1500×g) for a minimum of 10 minutes in a refrigerated centrifuge (set at ˜5° C.). […] The plasma samples were analyzed by LC-MS/MS to determine the plasma concentrations of NVX-144 and NVX-412. […]
PROPERTY_LABEL: Cmax (ng/mL)
API: value field is a number in ng/mL; no unit string.

input: State, in one line, measured Cmax of O=C(NNc1nc2cc(F)ccc2n2cccc12)c1cnccn1.O=C(O)C(=O)O [NVX-412]
output: 1810

###

Test: Pharmacokinetic experiments in rats (IV, oral suspension, oral solution)
Type: in vivo
Settings: male, rat, plasma, po, 20 mg/kg, Group 2, PO-Suspension 20 mg/kg, Mean N=3, read-out: Tmax
Method: The oral suspension formulation was prepared by suspending the test article in 5% PEG-200/95% of a 0.5% solution of methylcellulose. The concentration of the test article was such that a dosing volume of 10 mL/kg delivered the intended dose level. […] The whole blood samples were centrifuged (˜1500×g) for a minimum of 10 minutes in a refrigerated centrifuge (set at ˜5° C.). […] The plasma samples were analyzed by LC-MS/MS to determine the plasma concentrations of NVX-144 and NVX-412. […]
PROPERTY_LABEL: Tmax (min)
// return numeric value only (unit: min, not printed)

input: Look up and state reported Tmax for O=C(NNc1nc2cc(F)ccc2n2cccc12)c1cnccn1 [NVX-144, reference compound]
output: 40.2

###

Assay: Pharmacokinetic experiments in rats (IV, oral suspension, oral solution)
Type: in vivo
Details: male, rat, plasma, oral, 20 mg/kg, Group 3, PO-Suspension 20 mg/kg, 4 hr, individual animals
PROPERTY_LABEL: concentration at 4 h (ng/mL)
Please respond with the number in ng/mL and leave the unit unwritten.

input: Specify reported concentration at 4 h for the compound shown: O=C(NNc1nc2cc(F)ccc2n2cccc12)c1cnccn1.O=C(O)C(=O)O [NVX-412]
output: 341

###

Assay: Pharmacokinetic experiments in rats (IV, oral suspension, oral solution)
Assay type: in vivo
Settings: male, rat, plasma, po, 20 mg/kg, Group 4, PO-Solution 20 mg/kg, Mean N=3, read-out: Cmax
PROPERTY_LABEL: Cmax (ng/mL)
Report the figure in ng/mL without appending any unit label.

input: Give recorded Cmax. O=C(NNc1nc2cc(F)ccc2n2cccc12)c1cnccn1 [NVX-144, reference compound]
output: 714

###

Experiment: Pharmacokinetic experiments in rats (IV, oral suspension, oral solution)
Type: in vivo
Conditions: male, rat, plasma, po, 20 mg/kg, Group 4, PO-Solution 20 mg/kg, individual animals
PROPERTY_LABEL: AUC (ng·h/mL)
Number only, in ng·h/mL; omit the unit.

input: // fetch AUC given entry O=C(NNc1nc2cc(F)ccc2n2cccc12)c1cnccn1 [NVX-144, reference compound]
output: 2500

###

Test: Pharmacokinetic experiments in rats (IV, oral suspension, oral solution)
Type: in vivo
Conditions: male, rat, plasma, iv, 5 mg/kg, IV 5 mg/kg, Mean of 3
PROPERTY_LABEL: AUC (ng·h/mL)
Your answer is read as ng·h/mL, so omit the unit and give the number.

input: Tell me measured AUC for O=C(NNc1nc2cc(F)ccc2n2cccc12)c1cnccn1.O=C(O)C(=O)O [NVX-412] please.
output: 1070

###

Experiment: Pharmacokinetic experiments in rats (IV, oral suspension, oral solution)
Format: in vivo
Details: male, rat, plasma, po, 20 mg/kg, Group 2, PO-Suspension 20 mg/kg, Mean N=3, read-out: T ½ (converted)
PROPERTY_LABEL: half-life (h)
Enter your answer as a number in h; do not include the unit.

input: Using known records, supply half-life for O=C(NNc1nc2cc(F)ccc2n2cccc12)c1cnccn1 [NVX-144, reference compound]
output: 1.4

###

Assay: Pharmacokinetic experiments in rats (IV, oral suspension, oral solution)
Assay type: in vivo
Details: male, rat, plasma, po, 20 mg/kg, Group 2, PO-Suspension 20 mg/kg, Mean N=3
PROPERTY_LABEL: AUC(0-inf) (ng·h/mL)
Numeric answer only, unit ng·h/mL assumed.

input: Dear colleague, please send me the reported AUC(0-inf) for O=C(NNc1nc2cc(F)ccc2n2cccc12)c1cnccn1 [NVX-144, reference compound] when you can.
output: 1830

###

Test: Pharmacokinetic experiments in rats (IV, oral suspension, oral solution)
Format: in vivo
Conditions: male, rat, plasma, po, 20 mg/kg, Group 2, PO-Suspension 20 mg/kg, individual animals
Experimental: The oral suspension formulation was prepared by suspending the test article in 5% PEG-200/95% of a 0.5% solution of methylcellulose. The concentration of the test article was such that a dosing volume of 10 mL/kg delivered the intended dose level. […] The whole blood samples were centrifuged (˜1500×g) for a minimum of 10 minutes in a refrigerated centrifuge (set at ˜5° C.). […] The plasma samples were analyzed by LC-MS/MS to determine the plasma concentrations of NVX-144 and NVX-412. […]
PROPERTY_LABEL: AUC(0-inf) (ng·h/mL)
The reply should be a number in ng·h/mL, with the unit left off.

input: Query AUC(0-inf) for O=C(NNc1nc2cc(F)ccc2n2cccc12)c1cnccn1 [NVX-144, reference compound]
output: 1720

###

Experiment: Pharmacokinetic experiments in rats (IV, oral suspension, oral solution)
Format: in vivo
Settings: male, rat, plasma, iv, 5 mg/kg, administered intravenously, range over animals, read-out: terminal plasma half-life
PROPERTY_LABEL: half-life

input: Item O=C(NNc1nc2cc(F)ccc2n2cccc12)c1cnccn1.O=C(O)C(=O)O [NVX-412] : provide half-life
output: 0.93 to 1.15 h
